# TARGET_ENTITY: T1, Pex13, P80667
# T1 sequence (P80667 295-386, looked up): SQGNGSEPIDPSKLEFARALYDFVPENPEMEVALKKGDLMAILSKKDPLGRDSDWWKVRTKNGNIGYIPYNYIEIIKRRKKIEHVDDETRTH
# TEST: SPOT array
# TEST_SETTINGS: median of control spots 1341
Listed below: SPOT intensity values for each entry.
I only need the number, thanks.

Solved cases below.
If you can, please state the reported SPOT intensity value of NLKKRPPTAPQRKIS .
13

If you can, please state the reported SPOT intensity value of NNQRRKPLLLNIGDH .
0

If you can, please state the reported SPOT intensity value of APPLPPTAPPPPSLP .
4

Next:
If you can, please state the reported SPOT intensity value of APERAVPILPPRNNV .
536

If you can, please state the reported SPOT intensity value of NFKRLLPRDPSEKSS .
7

If you can, please state the reported SPOT intensity value of NIKVLLNPKLGKPVK .
6

If you can, please state the reported SPOT intensity value of RRTRLRPPTPLSQLL .
4
